The reported measurements were obtained from ChEMBL document CHEMBL5724914.

- test: The drug is tested on Z-010 corresponding to metagenome with ENA study accession number: PRJEB37062 and ENA sample accession number: ERS12561810 for biotransformation under anaerobic condition. The drug concentrations were measured over 9 timepoints collected between 0 and 24 hours of incubation by liquid-chromatography-coupled mass spectrometry (LC–MS); also: call rule not given here
- condition_set: 2 µM
quantity_name: Bacterial Biotransformation

[[record]]
compound = "CC(C)C[C@H]1C(=O)N2CCC[C@H]2[C@]2(O)O[C@](NC(=O)[C@@H]3C=C4c5cccc6[nH]c(Br)c(c56)C[C@H]4N(C)C3)(C(C)C)C(=O)N12.CS(=O)(=O)O [BROMOCRIPTINE MESYLATE]"
assay_result = "Compound metabolized"

[[record]]
compound = "CN[C@H]1CC[C@@H](c2ccc(Cl)c(Cl)c2)c2ccccc21 [SERTRALINE]"
assay_result = "Compound metabolized"

[[record]]
compound = "CN1CCC(OC(c2ccccc2)c2ccccc2)CC1"
assay_result = "Compound NOT metabolized"

[[record]]
compound = "CC(N)C12CC3CC(CC(C3)C1)C2 (stereo not given) [RIMANTADINE]"
assay_result = "Compound NOT metabolized"

[[record]]
compound = "CN(C)C(=O)Oc1cccc([N+](C)(C)C)c1.[Br-] [NEOSTIGMINE BROMIDE]"
assay_result = "Compound NOT metabolized"

[[record]]
compound = "C=C[C@H]1CN2CC[C@H]1C[C@H]2[C@H](O)c1ccnc2ccc(OC)cc12.C=C[C@H]1CN2CC[C@H]1C[C@H]2[C@H](O)c1ccnc2ccc(OC)cc12.O.O.O=S(=O)(O)O [QUININE SULFATE]"
assay_result = "Compound metabolized"

[[record]]
compound = "COc1ccccc1OCCNCC(O)COc1cccc2[nH]c3ccccc3c12 (stereo not given) [CARVEDILOL]"
assay_result = "Compound metabolized"

[[record]]
compound = "CN1C[C@H](C(=O)N[C@]2(C)O[C@@]3(O)[C@@H]4CCCN4C(=O)[C@H](Cc4ccccc4)N3C2=O)C[C@@H]2c3cccc4[nH]cc(c34)C[C@H]21.CS(=O)(=O)O [DIHYDROERGOTAMINE MESYLATE]"
assay_result = "Compound NOT metabolized"

[[record]]
compound = "CC(=O)SCC(Cc1ccccc1)C(=O)NCC(=O)OCc1ccccc1 (stereo not given) [RACECADOTRIL]"
assay_result = "Compound metabolized"

[[record]]
compound = "CCN(CC)CCNC(=O)c1ccc(NC(C)=O)cc1 [ACECAINIDE]"
assay_result = "Compound NOT metabolized"

[[record]]
compound = "CCc1cccc2c3c([nH]c12)C(CC)(CC(=O)O)OCC3 (stereo not given) [ETODOLAC]"
assay_result = "Compound NOT metabolized"

[[record]]
compound = "C#C[C@]1(OC(C)=O)CC[C@H]2[C@@H]3CCC4=C[C@@H](OC(C)=O)CC[C@@H]4[C@H]3CC[C@@]21C [ETHYNODIOL DIACETATE]"
assay_result = "Compound metabolized"

[[record]]
compound = "CCCCCNC(=N)N/N=C/c1c[nH]c2ccc(OC)cc12.O=C(O)/C=C\\C(=O)O [TEGASEROD MALEATE]"
assay_result = "Compound metabolized"

[[record]]
compound = "CN1CCC(=C2c3ccccc3CC(=O)c3sccc32)CC1.O=C(O)/C=C/C(=O)O [KETOTIFEN FUMARATE]"
assay_result = "Compound NOT metabolized"

[[record]]
compound = "C[C@]12CCC(=O)C=C1[C@@H]1C[C@@H]1[C@H]1[C@@H]3[C@@H]4C[C@@H]4[C@@]4(CCC(=O)O4)[C@@]3(C)CC[C@@H]12 [DROSPIRENONE]"
assay_result = "Compound metabolized"

[[record]]
compound = "CC(=O)Nc1ccc(OC(C)=O)cc1 [DIACETAMATE]"
assay_result = "Compound metabolized"

[[record]]
compound = "O=C1CC2(CCCC2)CC(=O)N1CCCCN1CCN(c2ncccn2)CC1 [BUSPIRONE]"
assay_result = "Compound metabolized"

[[record]]
compound = "OCCN(CCO)c1nc(N2CCCCC2)c2nc(N(CCO)CCO)nc(N3CCCCC3)c2n1 [DIPYRIDAMOLE]"
assay_result = "Compound metabolized"

[[record]]
compound = "CCCC(C)(COC(N)=O)COC(=O)NC(C)C (stereo not given) [CARISOPRODOL]"
assay_result = "Compound metabolized"

[[record]]
compound = "CC12CC3CC(C)(C1)CC(N)(C3)C2 [MEMANTINE]"
assay_result = "Compound NOT metabolized"

[[record]]
compound = "CCc1oc2ccccc2c1C(=O)c1cc(Br)c(O)c(Br)c1 [BENZBROMARONE]"
assay_result = "Compound metabolized"

[[record]]
compound = "COc1ccc2cc([C@H](C)C(=O)O)ccc2c1 [NAPROXEN]"
assay_result = "Compound NOT metabolized"

[[record]]
compound = "CC[C@@]1(O)C(=O)OCc2c1cc1n(c2=O)Cc2cc3c(CN(C)C)c(O)ccc3nc2-1 [TOPOTECAN]"
assay_result = "Compound NOT metabolized"

[[record]]
compound = "CC(C)(C)NCC(O)COc1cccc2c1CC(O)C(O)C2 (stereo not given) [NADOLOL]"
assay_result = "Compound metabolized"

[[record]]
compound = "CN1CCCCC1CCN1c2ccccc2Sc2ccc([S+](C)[O-])cc21.O=S(=O)(O)c1ccccc1 (stereo not given) [MESORIDAZINE BESYLATE]"
assay_result = "Compound metabolized"

[[record]]
compound = "C#C[C@]1(OC(C)=O)CC[C@H]2[C@@H]3CCC4=CC(=O)CC[C@@H]4[C@H]3CC[C@@]21C [NORETHINDRONE ACETATE]"
assay_result = "Compound metabolized"

[[record]]
compound = "CC(C)c1nc(N(C)S(C)(=O)=O)nc(-c2ccc(F)cc2)c1/C=C/[C@@H](O)C[C@@H](O)CC(=O)[O-].CC(C)c1nc(N(C)S(C)(=O)=O)nc(-c2ccc(F)cc2)c1/C=C/[C@@H](O)C[C@@H](O)CC(=O)[O-].[Ca+2] [ROSUVASTATIN CALCIUM]"
assay_result = "Compound NOT metabolized"

[[record]]
compound = "O=C1N=C([O-])NC1(c1ccccc1)c1ccccc1.[Na+] [PHENYTOIN SODIUM]"
assay_result = "Compound NOT metabolized"

[[record]]
compound = "c1ccc2[nH]c(-c3cscn3)nc2c1 [THIABENDAZOLE]"
assay_result = "Compound NOT metabolized"

[[record]]
compound = "CN1CCN2c3ccccc3Cc3ccccc3C2C1 (stereo not given) [MIANSERIN]"
assay_result = "Compound metabolized"

[[record]]
compound = "Br.COc1ccc2c(c1)[C@]13CCCC[C@@H]1[C@H](C2)N(C)CC3.O [DEXTROMETHORPHAN HYDROBROMIDE]"
assay_result = "Compound metabolized"

[[record]]
compound = "CC(C)(C)NC[C@H](O)COc1nsnc1N1CCOCC1.O=C(O)/C=C\\C(=O)O [TIMOLOL MALEATE]"
assay_result = "Compound NOT metabolized"

[[record]]
compound = "CC(C)[C@H]1CC[C@H](C(=O)N[C@H](Cc2ccccc2)C(=O)O)CC1 [NATEGLINIDE]"
assay_result = "Compound metabolized"

[[record]]
compound = "CCN(C)C(=O)Oc1cccc([C@H](C)N(C)C)c1.O=C(O)C(O)C(O)C(=O)O [RIVASTIGMINE TARTRATE]"
assay_result = "Compound NOT metabolized"

[[record]]
compound = "CN1CCC[C@@H]1CCO[C@](C)(c1ccccc1)c1ccc(Cl)cc1.O=C(O)/C=C/C(=O)O [CLEMASTINE FUMARATE]"
assay_result = "Compound NOT metabolized"

